Data credit: patent US5159081A

Molecular target: mu receptor (Rattus norvegicus)
Construct: The brain tissue, rat whole brain minus cerebellum for mu was homogenized; from tissue; host or cells: brain minus cerebellum of male Sprague Dawley rats, homogenate fraction
Sequence (P33535 whole entry): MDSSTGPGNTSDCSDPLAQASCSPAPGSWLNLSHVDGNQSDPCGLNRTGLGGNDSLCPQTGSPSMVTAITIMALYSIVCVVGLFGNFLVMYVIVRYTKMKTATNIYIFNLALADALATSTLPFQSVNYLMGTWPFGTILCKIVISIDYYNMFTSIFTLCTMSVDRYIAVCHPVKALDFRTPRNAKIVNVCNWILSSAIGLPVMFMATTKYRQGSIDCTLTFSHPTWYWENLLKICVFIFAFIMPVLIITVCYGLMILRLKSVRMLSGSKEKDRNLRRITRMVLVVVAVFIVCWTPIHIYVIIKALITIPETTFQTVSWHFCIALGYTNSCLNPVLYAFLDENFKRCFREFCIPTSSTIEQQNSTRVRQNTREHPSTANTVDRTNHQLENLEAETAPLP
Experiment: Naloxone [3H] opioid receptor binding assay (mu receptor)
Set-up: species or system rat (male Sprague Dawley)
Conditions: 20 min, pH 7.4, read-out: % displacement at 10 nM
Where a name gives a salt, the structure may show the parent alone.
Reported inhibition at 0.01 µM values are given for each entry in this list.

compound: CNC(=O)CNC(=O)CC(=O)N(CCN1CC[C@@](C)(c2cccc(O)c2)[C@@H](C)C1)C1CCCCC1 (relative stereo) [Example 38, monohydrochloride]
system-under-test: mu receptor (Rattus norvegicus)
inhibition at 0.01 µM / %: 79
//
compound: Cc1oc(=O)oc1COC(=O)CCCC(=O)N[C@@H](CC1CCCCC1)CN1CC[C@@](C)(c2cccc(O)c2)[C@@H](C)C1 [Example 70]
system-under-test: mu receptor (Rattus norvegicus)
inhibition at 0.01 µM / %: 89
//
compound: CCOC(=O)CCCC(=O)NC(CCN1CC[C@@](C)(c2cccc(O)c2)[C@@H](C)C1)CC(C)C (stereo in doubt) [Example 3B, monohydrochloride]
system-under-test: mu receptor (Rattus norvegicus)
inhibition at 0.01 µM / %: 93
//
compound: CNC(=O)COC(=O)CCCC(=O)N[C@@H](CC1CCCCC1)CN1CC[C@](C)(c2cccc(O)c2)[C@H](C)C1 [Example 62]
system-under-test: mu receptor (Rattus norvegicus)
inhibition at 0.01 µM / %: 70
//
compound: C[C@H]1CN(C[C@H](CC2CCCCC2)NC(=O)CCCC(=O)OCC(=O)N(C)C)CC[C@@]1(C)c1cccc(O)c1 [Example 64]
system-under-test: mu receptor (Rattus norvegicus)
inhibition at 0.01 µM / %: 81
//
compound: C[C@H]1CN(CC(Cc2ccccc2)NC(=O)CCC(=O)O)CC[C@@]1(C)c1cccc(O)c1 (some centres unmarked) [Example 14]
system-under-test: mu receptor (Rattus norvegicus)
inhibition at 0.01 µM / %: 20
//
compound: CCCOC(=O)CCC(=O)N(CCN1CC[C@@](C)(c2cccc(O)c2)[C@@H](C)C1)C1CCCCC1 (relative stereo) [Example 31]
system-under-test: mu receptor (Rattus norvegicus)
inhibition at 0.01 µM / %: 82
//
compound: C[C@H]1CN(CCC(NC(=O)C(CCCNC(=N)N[N+](=O)[O-])NC(=O)CCCC(=O)NCc2ccccc2)c2ccccc2)CC[C@@]1(C)c1cccc(O)c1 (single isomer, unassigned; (-)) [Example 8]
system-under-test: mu receptor (Rattus norvegicus)
inhibition at 0.01 µM / %: 95
//
compound: CCCOC(=O)CCCC(=O)N[C@@H](CC1CCCCC1)CN1CC[C@@](C)(c2cccc(O)c2)[C@@H](C)C1 [Example 54]
system-under-test: mu receptor (Rattus norvegicus)
inhibition at 0.01 µM / %: 81
//
compound: C[C@H]1CN(CCN(C(=O)CCCC(=O)O)c2ccccc2)CC[C@@]1(C)c1cccc(O)c1 (relative stereo) [Example 20, monohydrate]
system-under-test: mu receptor (Rattus norvegicus)
inhibition at 0.01 µM / %: 95
//
compound: CCNC(=O)COC(=O)CCCC(=O)N[C@@H](CC1CCCCC1)CN1CC[C@@](C)(c2cccc(O)c2)[C@@H](C)C1 [Example 66]
system-under-test: mu receptor (Rattus norvegicus)
inhibition at 0.01 µM / %: 81
